Examples of sequences with documented phosphorylation enrichment follow.
biological target: EPHB2 (UniProt P29323); assay: phosphorylation enrichment, bacterial display (enrichment ratio); higher = better substrate or ligand; peptides without Tyr show the background;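 note: 11-residue human phosphosite peptides and single-mutation variants displayed on the E. coli surface, counted by deep sequencing, each peptide's frequency after selection divided by its frequency in the unselected input library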;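 note: frequency after pTyr selection over input frequency; kinase dosed for 20-30% of maximal phosphorylation in three min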
Sequence (P29323 whole entry, looked up): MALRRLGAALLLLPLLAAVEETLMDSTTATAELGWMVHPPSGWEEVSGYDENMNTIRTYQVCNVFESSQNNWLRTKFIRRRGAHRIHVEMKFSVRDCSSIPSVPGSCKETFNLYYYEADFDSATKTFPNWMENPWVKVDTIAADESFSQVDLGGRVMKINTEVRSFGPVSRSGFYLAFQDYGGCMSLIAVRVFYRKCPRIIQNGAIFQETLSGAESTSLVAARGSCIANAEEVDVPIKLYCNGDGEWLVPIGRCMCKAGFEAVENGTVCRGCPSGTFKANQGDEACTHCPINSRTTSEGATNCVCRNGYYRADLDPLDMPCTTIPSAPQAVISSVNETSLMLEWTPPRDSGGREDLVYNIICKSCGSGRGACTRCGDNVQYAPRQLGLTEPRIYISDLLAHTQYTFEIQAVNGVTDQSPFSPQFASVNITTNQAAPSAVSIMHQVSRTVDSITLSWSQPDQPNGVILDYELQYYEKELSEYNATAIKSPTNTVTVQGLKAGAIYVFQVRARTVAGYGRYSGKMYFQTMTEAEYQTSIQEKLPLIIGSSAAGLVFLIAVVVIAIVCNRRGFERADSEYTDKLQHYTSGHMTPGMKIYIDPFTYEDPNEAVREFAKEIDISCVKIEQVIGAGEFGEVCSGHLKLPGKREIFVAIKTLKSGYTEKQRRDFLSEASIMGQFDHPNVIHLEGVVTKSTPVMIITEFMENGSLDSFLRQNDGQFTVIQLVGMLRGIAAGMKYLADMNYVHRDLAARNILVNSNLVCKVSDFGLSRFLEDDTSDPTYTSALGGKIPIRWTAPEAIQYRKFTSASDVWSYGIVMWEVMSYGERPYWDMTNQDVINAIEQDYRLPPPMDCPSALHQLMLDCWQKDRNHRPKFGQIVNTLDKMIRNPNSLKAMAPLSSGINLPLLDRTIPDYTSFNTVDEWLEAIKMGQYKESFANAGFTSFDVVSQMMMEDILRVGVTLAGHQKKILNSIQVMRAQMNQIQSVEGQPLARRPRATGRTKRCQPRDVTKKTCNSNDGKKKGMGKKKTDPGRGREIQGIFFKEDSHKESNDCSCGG
The response must contain the number and no unit.

query: Input KWRGQYDVAIR [BTK_Y425_K430R] , output reported phosphorylation enrichment.
result: 0.454

Others:
query: Input KQELVYPNKKL [OPTN_Y356_T357P] , output reported phosphorylation enrichment.
result: 0.358

query: Input RFGKVYKAHLF [ROR2_Y488_G490A] , output reported phosphorylation enrichment.
result: 0.583

query: Input SLMNQYVNKKF [RAB7A_Y28] , output reported phosphorylation enrichment.
result: 0.373

query: Input CNRADYSKLAS [GNE_Y22_P27S] , output reported phosphorylation enrichment.
result: 0.572

query: Input PSTYRYERGSR [INPPL1_Y663_P659S] , output reported phosphorylation enrichment.
result: 0.511
